Assay: NCI Yeast Anticancer Drug Screen. Data for the wt1 strain (AID 149);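 also: 0% = growth of vehicle-treated wt1 cultures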
Conditions: S. cerevisiae wt1 strain (SPY 50644) growth inhibition; at 33.0 µM; active compounds read high
About 79,000 compounds went through this panel and 15% of them were active in at least one assay; those are over-represented in the sample as a whole. Calls of active or inactive are those of the source. Rule as the data show it: active = growth inhibition above about 70%; inactive = the rest.
Kindly state growth inhibition for each of the entries shown.

# input Using the record for O=[N+]([O-])/C(C(Cl)=C(Cl)Cl)=C1/OCCS1 , report its growth inhibition.
# output 99% (active)

# input Using the record for Cc1c(-c2ccccc2)[nH]c2ccccc12 , report its growth inhibition.
# output 92% (active)

# input Using the record for CN(C)CCN1C(=O)c2cccc3cc([N+](=O)[O-])cc(c23)C1=O , report its growth inhibition.
# output -4% (inactive)

# input Using the record for Cc1ccc(S(=O)(=O)Nc2ccc3c(c2)C(O)c2ccccc2-3)cc1 (configuration not stated) , report its growth inhibition.
# output 22% (inactive)

# input Using the record for NNC(=S)Nc1cccc(Cl)c1 , report its growth inhibition.
# output 14% (inactive)

# input Using the record for O=C1C=CC(=O)N1c1ccc2c(c1)OCO2 , report its growth inhibition.
# output 100% (active)

# input Using the record for CCOC(=O)C(NC(=O)CC)(N1CCN(c2cc3c(cc2F)c(=O)c(C(=O)O)cn3C2CC2)CC1)C(F)(F)F (configuration not stated) , report its growth inhibition.
# output 14% (inactive)

# input Using the record for N#CC(=C1C=CC(=NO)C=C1)c1ccccc1 , report its growth inhibition.
# output 99% (active)

# input Using the record for CC(=O)N1C(=O)/C(=C\C(=O)c2ccc(Cl)cc2)c2ccccc21 , report its growth inhibition.
# output 79% (active)

# input Using the record for CCOc1ccc(C(=O)CCC(=O)O)c(C)c1 , report its growth inhibition.
# output 5% (inactive)

# input Using the record for CCNc1ccc2c(c1)C(=O)N(OS(C)(=O)=O)C2=O , report its growth inhibition.
# output 10% (inactive)

# input Using the record for C(=N/NC1=NCCN1)/c1c2ccccc2c(/C=N\NC2=NCCN2)c2ccccc12 , report its growth inhibition.
# output 52% (inactive)

# input Using the record for CCC(c1ccc(O)cc1)C(CC)c1ccc(OCCN)cc1 (configuration not stated) , report its growth inhibition.
# output -8% (inactive)

# input Using the record for Nc1nc2c(c(=O)[nH]1)NC(CCNc1ccc(C(=O)O)cc1)CN2 (configuration not stated) , report its growth inhibition.
# output 1% (inactive)

# input Using the record for O=S(=O)(c1cc(Cl)ccc1O)c1cc(Cl)ccc1O , report its growth inhibition.
# output 99% (active)

# input Using the record for O=C1c2ccccc2C(=O)c2cc(S(=O)(=O)Nc3ccccc3)ccc21 , report its growth inhibition.
# output 9% (inactive)

# input Using the record for COc1cc(N)ccc1Nc1c2ccccc2nc2ccccc12 , report its growth inhibition.
# output -17% (inactive)

# input Using the record for O=C(/C=C/c1cccc2ccccc12)c1ccc(Cl)cc1 , report its growth inhibition.
# output -34% (inactive)

# input Using the record for N#CC(=S)Nc1cccc(Cl)c1 , report its growth inhibition.
# output 31% (inactive)

# input Using the record for CCCCCCCCCCCc1nc(N)n[nH]1 , report its growth inhibition.
# output 67% (inactive)

# input Using the record for CCn1ncc(N=O)c1N , report its growth inhibition.
# output 24% (inactive)

# input Using the record for Cc1c2cc[n+](CCN3CCCCC3)cc2c(C)c2c1[nH]c1ccc(O)cc12 , report its growth inhibition.
# output 6% (inactive)

# input Using the record for O=C1CC(=O)N(C2CCCCC2)C(=O)N1c1ccccc1S(=O)(=O)Oc1ccccc1 , report its growth inhibition.
# output 12% (inactive)

# input Using the record for COC(=O)c1ccc2c(c1)Cc1ccccc1-2 , report its growth inhibition.
# output -2% (inactive)

# input Using the record for CCC(C)(c1ccc(O)c(C)c1)c1ccc(O)c(C)c1 , report its growth inhibition.
# output 98% (active)

# input Using the record for N#C/C(=C/N1C(=O)/C(=C/c2ccc([N+](=O)[O-])cc2)SC1=S)c1nc2ccccc2s1 , report its growth inhibition.
# output 18% (inactive)

# input Using the record for Cn1c2nc3ccccc3c-2nc2ccccc21 , report its growth inhibition.
# output 96% (active)

# input Using the record for CNc1ccc(Cc2c[nH]c3ccccc23)cc1 , report its growth inhibition.
# output -17% (inactive)

# input Using the record for COC(=O)c1cccc(C)c1C(=O)c1c(C)cc(C)cc1C , report its growth inhibition.
# output 5% (inactive)

# input Using the record for OCCN(CCO)c1ccc2c(c1)Cc1ccccc1-2 , report its growth inhibition.
# output 6% (inactive)

# input Using the record for CNc1nc(C)nc2c1cnn2-c1ccc([N+](=O)[O-])cc1 , report its growth inhibition.
# output 12% (inactive)

# input Using the record for Clc1cc(Cc2ccc(N=C/C=C/c3ccccc3)c(Cl)c2)ccc1N=C/C=C\c1ccccc1 , report its growth inhibition.
# output 1% (inactive)

# input Using the record for Clc1c(Cl)c(Cl)c2c(nnn2C2CCCO2)c1Cl (configuration not stated) , report its growth inhibition.
# output 11% (inactive)

# input Using the record for Nc1nc(N)c2cc(Sc3ccc4ccccc4c3)ccc2n1 , report its growth inhibition.
# output 86% (active)

# input Using the record for Cc1cc(OCc2ccccc2)ccc1[N+](=O)[O-] , report its growth inhibition.
# output 32% (inactive)

# input Using the record for S=C(S)NCC1CCC(CNC(=S)S)CC1 (configuration not stated) , report its growth inhibition.
# output 20% (inactive)

# input Using the record for CCc1nc(N)nc(N)c1-c1ccc(NCCCCCCN)c([N+](=O)[O-])c1 , report its growth inhibition.
# output -3% (inactive)

# input Using the record for CCOC(=O)C1=C(C)NC(C)=C(C(=O)OCC)C1c1ccccc1Cl , report its growth inhibition.
# output 40% (inactive)

# input Using the record for CN=C(N)N/N=C(\C)c1ccc2oc3ccc(/C(C)=N/NC(N)=NC)cc3c2c1 , report its growth inhibition.
# output 98% (active)

# input Using the record for CCC(NC(C)c1ccccc1)C(=O)c1ccc(OCc2ccccc2)c(OCc2ccccc2)c1 (configuration not stated) , report its growth inhibition.
# output 2% (inactive)

# input Using the record for COc1cc(N(C)C)ccc1/C=C\c1ccnc2ccccc12 , report its growth inhibition.
# output -9% (inactive)

# input Using the record for O=C(Nc1cccc(C(F)(F)F)c1)Oc1ccc(Cl)cc1C(=O)c1ccccc1 , report its growth inhibition.
# output 80% (active)

# input Using the record for CC(=O)Oc1ccc(C(=O)c2ccccc2)c(O)c1 , report its growth inhibition.
# output 10% (inactive)

# input Using the record for O=Nn1c2ccccc2c2ccccc21 , report its growth inhibition.
# output 9% (inactive)

# input Using the record for Cc1cc(O)c2c(c1O)C(=O)C13C(=C2O)C(=O)C2C(O)C1C1C(O)C3C(=O)C3=C(O)c4c(O)cc(C)c(O)c4C(=O)C321 (configuration not stated) , report its growth inhibition.
# output 80% (active)

# input Using the record for COc1ccc(C(C#N)=C2C=CC(=NO)C=C2)cc1 , report its growth inhibition.
# output 96% (active)

# input Using the record for COC(=O)c1n[nH]c(C)c1N=NN(C)CCC#N , report its growth inhibition.
# output 99% (active)

----------
Test: NCI Yeast Anticancer Drug Screen. Data for the rad52 strain (AID 147);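 also: 0% = growth of vehicle-treated control cultures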
Conditions: S. cerevisiae rad52 mutant growth inhibition; at 33.0 µM
Compounds without any hit were thinned out: in the full panel of roughly 79,000, 15% have a hit. Active and inactive are the calls of the source. No stated cut-off is given here; in the data, active means growth inhibition above about 70%; inactive means the rest.
Hi! Could you answer with just one of these? active, inactive

# input Which outcome did this test record for the compound COc1cc(N)ccc1Nc1c2ccccc2nc2ccccc12 ?
# output active

# input Which outcome did this test record for the compound Oc1ccc(C=Nc2ccccc2O)cc1 ?
# output active

# input Which outcome did this test record for the compound CCN(CC)N=Nc1c(C(N)=O)n[nH]c1C ?
# output inactive

# input Which outcome did this test record for the compound CCOC(=O)[C@]1(Br)CC[C@@]1(Br)C(=O)OCC ?
# output active

# input Which outcome did this test record for the compound CC(=O)C1(O)Cc2c(O)c3c(c(O)c2C(OC2CC(N)C(O)C(C)O2)C1)C(=O)c1ccccc1C3=O (stereo unspecified) ?
# output active

# input Which outcome did this test record for the compound O=S(=O)(N/N=C/c1cccc(Cl)c1)c1ccccc1 ?
# output active

# input Which outcome did this test record for the compound NNC(=S)Nc1cccc2ccccc12 ?
# output inactive

# input Which outcome did this test record for the compound CN(CC(=O)O)c1ccc(/C=C/c2ccnc3ccccc23)cc1 ?
# output inactive

# input Which outcome did this test record for the compound COc1cc(N(C)C)ccc1/C=C\c1ccnc2ccccc12 ?
# output inactive

# input Which outcome did this test record for the compound CCN(CC)CCNC(=O)c1nn(-c2ccc(Cl)cc2)c2c1CCc1cc(OC)ccc1-2 ?
# output inactive

# input Which outcome did this test record for the compound NC(N)=N/N=C/c1cc(Cl)cc(Cl)c1O ?
# output inactive
